Origin of values: paper PMC5473336

# STUDY SYSTEM: RAD51 (Homo sapiens)
# Sequence (Q06609 1-339): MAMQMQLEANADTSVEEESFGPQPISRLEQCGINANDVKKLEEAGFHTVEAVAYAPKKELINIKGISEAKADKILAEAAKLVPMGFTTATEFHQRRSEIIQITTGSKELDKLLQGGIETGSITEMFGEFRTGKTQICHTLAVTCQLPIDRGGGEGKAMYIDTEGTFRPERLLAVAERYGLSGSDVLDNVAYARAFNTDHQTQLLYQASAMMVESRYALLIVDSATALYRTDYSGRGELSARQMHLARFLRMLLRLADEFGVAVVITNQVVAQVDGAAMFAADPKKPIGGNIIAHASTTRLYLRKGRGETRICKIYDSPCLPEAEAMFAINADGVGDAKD
# PROTOCOL DETAILS: Fluorescence polarization-based RAD51-DNA binding assay
ENDPOINT NAME: influence on RAD51-ssDNA binding (in words)

c1ccc2c(-c3nc4ccccc4n4cccc34)cccc2c1 [Compound 11d]: modest influence
c1ccc2c(c1)nc(-c1ccc(N3CCCC3)cc1)c1cccn12: modest influence
CN(C)c1ccc(-c2nc3ccccc3n3cccc23)cc1: modest influence
CN(C)c1ccc(-c2nc3cc(OC(C)(C)C(N)=O)ccc3n3cccc23)cc1: stimulators
CCCOc1ccc2c(c1)nc(-c1ccc(N)cc1)c1cccn12 [Compound 15a]: stimulators

// below: influence on RAD51-ssDNA binding (in words) requested for another compound
Recorded influence on RAD51-ssDNA binding (in words) for C1=C(c2nc3ccccc3n3cccc23)CCCC1 [Compound 11c] on RAD51 (Homo sapiens) was modest influence

###

# STUDY SYSTEM: RAD51 (Homo sapiens)
# PROTOCOL DETAILS: Gel-based D-loop assay
# Assay type: biochemical
ENDPOINT NAME: D-loop inhibitory activity (in words)

These solved cases illustrate the format of a correct answer.
Oc1ccc2c(c1)nc(-c1cccnc1)c1cccn12 [Compound 13b]: slight improvement
FC(F)(F)Oc1ccc(-c2nc3ccccc3n3cccc23)cc1 [Compound 9e]: significantly decreased
c1ccc2c(c1)nc(-c1ccncc1)c1cccn12 [Compound 11b]: moderate
O=[N+]([O-])c1ccc(-c2nc3ccccc3n3cccc23)cc1 [Compound 9f]: significantly decreased
COc1ccc2c(c1)nc(-c1cccnc1)c1cccn12 [Compound 13a]: slight improvement

Data point: c1ccc2c(-c3nc4ccccc4n4cccc34)cccc2c1 [Compound 11d] ; D-loop inhibitory activity (in words) = weak

Data point: c1cncc(-c2nc3ccccc3n3cccc23)c1 [Compound 11a] ; D-loop inhibitory activity (in words) = moderate

###

# STUDY SYSTEM: RAD51 (Homo sapiens, UniProt Q06609)
# PROTOCOL DETAILS: Fluorescence polarization-based RAD51-DNA binding assay
# CONDITIONS USED: Stim: compound is a stimulator
ENDPOINT NAME: ssDNA binding IC50

These solved cases illustrate the format of a correct answer.
c1ccc2c(c1)nc(-c1ccc(N3CCCC3)cc1)c1cccn12: Stim
Nc1ccc(-c2nc3cc(OCCF)ccc3n3cccc23)cc1 [Compound 15b]: Stim
CN(C)c1ccc(-c2nc3cc(F)ccc3n3cccc23)cc1 [Compound 12j]: Stim
CCCOc1ccc2c(c1)nc(-c1ccc(N)cc1)c1cccn12 [Compound 15a]: Stim

Data point: COc1ccc2c(c1)NC(c1ccc(N(C)C)cc1)c1cccn1-2 (racemic) ; ssDNA binding IC50 = Stim

###

# STUDY SYSTEM: RAD51 (Homo sapiens, UniProt Q06609)
# Sequence (Q06609 1-339): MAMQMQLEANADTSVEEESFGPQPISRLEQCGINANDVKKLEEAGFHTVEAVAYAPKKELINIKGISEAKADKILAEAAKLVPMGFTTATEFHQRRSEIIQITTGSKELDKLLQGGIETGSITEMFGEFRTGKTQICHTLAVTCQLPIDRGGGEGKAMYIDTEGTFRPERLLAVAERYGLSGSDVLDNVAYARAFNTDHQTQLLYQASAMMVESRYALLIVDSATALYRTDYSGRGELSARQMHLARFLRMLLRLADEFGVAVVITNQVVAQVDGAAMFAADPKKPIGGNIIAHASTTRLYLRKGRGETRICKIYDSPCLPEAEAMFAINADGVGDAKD
# PROTOCOL DETAILS: Gel-based D-loop assay
# Assay type: biochemical
ENDPOINT NAME: D-loop inhibitory activity (in words)

Oc1ccc(-c2nc3ccccc3n3cccc23)cc1 [Compound 9d, 4-(Pyrrolo[1,2-a]quinoxalin-4-yl)phenol]: significantly decreased
C1=C(c2nc3ccccc3n3cccc23)CCCC1 [Compound 11c]: weak
c1ccc2c(c1)nc(-c1ccc(N3CCCC3)cc1)c1cccn12: significantly decreased

###

# STUDY SYSTEM: RAD51 (Homo sapiens)
# PROTOCOL DETAILS: Fluorescence polarization-based RAD51-DNA binding assay
ENDPOINT NAME: influence on RAD51-ssDNA binding (in words)

COc1ccc2c(c1)nc(-c1ccc(N)cc1)c1cccn12 [Compound 12c]: only weakly influenced
CN(C)c1ccc(-c2nc3cc(O)ccc3n3cccc23)cc1 [Compound 12g]: only weakly influenced
